assay-name: Toxicity in rat
Format: organism-based
experimental-parameters: in vivo
measured-endpoint: LD50 (mg/kg)
State just the number; it will be interpreted in mg/kg.

Ask: Request the reported LD50 associated with O=c1c2ccccc2[se]n1-c1ccccc1
Result: 6180
